Settings: 303.15 K; 101.33 kPa; Liquid; Vibrating tube method

{"smiles_text": "CNc1ccccc1", "measurement_units": "kg/m3", "mass density": 978.284}
{"smiles_text": "CCC(C)=O", "measurement_units": "kg/m3", "mass density": 794.636}
{"smiles_text": "c1ccncc1", "measurement_units": "kg/m3", "mass density": 973.148}
{"smiles_text": "Nc1ccccc1", "measurement_units": "kg/m3", "mass density": 1013.23}

----------
Property: speed of sound; scope: individual molecules
Conditions: 293.15 K; 101.33 kPa; Liquid; Pulse-echo method
Numbers after ± are expanded uncertainties.

{"smiles_text": "CNc1ccccc1", "speed of sound": "1582.5 ± 2.1 m/s"}
{"smiles_text": "c1ccncc1", "speed of sound": "1436.6 ± 0.9 m/s"}
{"smiles_text": "CCC(C)=O", "speed of sound": "1212 ± 0.8 m/s"}
{"smiles_text": "Nc1ccccc1", "speed of sound": "1657 ± 0.94 m/s"}

----------
Settings: 293.15 K; 101.33 kPa; Liquid; Vibrating tube method
readout: mass density (kg/m3)

{"compound": "CNc1ccccc1 [N-methylaniline]", "readout": "mass density", "recorded_number": 986.295}
{"compound": "Nc1ccccc1 [aniline]", "readout": "mass density", "recorded_number": 1021.84}
{"compound": "c1ccncc1 [pyridine]", "readout": "mass density", "recorded_number": 983.163}
{"compound": "CCC(C)=O [butanone]", "readout": "mass density", "recorded_number": 805.08}

----------
Property: speed of sound; scope: individual compounds
Conditions: 298.15 K; 101.33 kPa; Liquid; Pulse-echo method
readout: speed of sound (m/s)

{"smiles_text": "c1ccncc1", "recorded_number": 1416.2}
{"smiles_text": "Nc1ccccc1", "recorded_number": 1637.8}
{"smiles_text": "CNc1ccccc1", "recorded_number": 1563.9}
{"smiles_text": "CCC(C)=O", "recorded_number": 1190.8}

----------
Property: mass density; scope: individual compounds
Conditions: 298.15 K; 101.33 kPa; Liquid; Vibrating tube method

{"smiles_text": "Nc1ccccc1", "mass density [kg/m3]": 1017.51}
{"smiles_text": "c1ccncc1", "mass density [kg/m3]": 978.138}
{"smiles_text": "CNc1ccccc1", "mass density [kg/m3]": 982.278}
{"smiles_text": "CCC(C)=O", "mass density [kg/m3]": 799.861}

----------
Details: 303.15 K; 101.33 kPa; Liquid; Pulse-echo method
readout: speed of sound (m/s)

{"compound": "c1ccncc1 [pyridine]", "measurement_units": "m/s", "recorded_number": 1396.9}
{"compound": "CCC(C)=O [butanone]", "measurement_units": "m/s", "recorded_number": 1170.6}
{"compound": "Nc1ccccc1 [aniline]", "measurement_units": "m/s", "recorded_number": 1619.3}
{"compound": "CNc1ccccc1 [N-methylaniline]", "measurement_units": "m/s", "recorded_number": 1546}
